Let's look at some compounds and their measured pIC50.
# assayTarget: PTGER2 (EP2) (Homo sapiens, UniProt P43116)
# Sequence (P43116 whole entry): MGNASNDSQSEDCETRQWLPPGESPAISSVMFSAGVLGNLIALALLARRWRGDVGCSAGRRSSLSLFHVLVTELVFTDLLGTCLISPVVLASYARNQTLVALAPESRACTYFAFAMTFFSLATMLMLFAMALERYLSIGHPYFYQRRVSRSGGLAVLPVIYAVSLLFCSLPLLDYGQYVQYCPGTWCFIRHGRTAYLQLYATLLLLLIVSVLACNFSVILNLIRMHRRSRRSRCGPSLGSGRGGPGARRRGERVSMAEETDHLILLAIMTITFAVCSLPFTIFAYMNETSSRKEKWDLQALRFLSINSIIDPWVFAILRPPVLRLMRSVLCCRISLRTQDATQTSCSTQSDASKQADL
# assayExplanation: hEP2 b-Arrestin Assay (PathHunter HEK 293 PTGER2 b-arrestin cells, PGE2 5 μM)
# conditionNotes: antagonistic activity, beta-arrestin assay, HEK 293 PTGER2 cells, PGE2 5 μM (EC80); read-out: hEP2 b-arr IC50
pIC50: −log10 of the molar value.
measurementName: pIC50

[[record]]
smilesstructure = "COc1ccc2ccccc2c1CCNc1cc(-c2ccc(C(=O)O)c(OCCO)c2)ncn1"
measurementname = "pIC50"
readoutvalue = 7.35

[[record]]
smilesstructure = "CCOc1cc(-c2cc(NCCc3cccc4cc[nH]c34)ncn2)sc1C(=O)O"
measurementname = "pIC50"
readoutvalue = 6.96

[[record]]
smilesstructure = "CCOc1cc(-c2cc(NCCc3c(Br)ccc4ccccc34)ncn2)ccc1C(=O)O"
measurementname = "pIC50"
readoutvalue = 7.66

[[record]]
smilesstructure = "COc1ccc2ccccc2c1CCNc1cc(-c2ccc(-c3c(O)c(=O)c3=O)cc2)ncn1"
measurementname = "pIC50"
readoutvalue = 7.60

[[record]]
smilesstructure = "O=C(O)c1ccc(-c2cc(NCCc3ccc(F)c4ccccc34)ncn2)cc1OC1CCC1"
measurementname = "pIC50"
readoutvalue = 7.14

[[record]]
smilesstructure = "CCOc1cc(-c2cc(NCCc3c(OC(C)C)ccc4ccccc34)ncn2)sc1C(=O)O"
measurementname = "pIC50"
readoutvalue = 6.94

[[record]]
smilesstructure = "CCOc1cc(-c2cc(NCCc3ccc(F)c4ccccc34)ncn2)sc1C(=O)O"
measurementname = "pIC50"
readoutvalue = 7.49

[[record]]
smilesstructure = "CCOc1cc(-c2cc(NCCc3cccc4cccnc34)ncn2)sc1-c1noc(=O)[nH]1"
measurementname = "pIC50"
readoutvalue = 6.92


* * *

Let's look at some compounds and their measured pIC50.
# assayTarget: PTGER2 (EP2) (Homo sapiens, UniProt P43116)
# assayExplanation: hEP2 b-Arrestin Assay (PathHunter HEK 293 PTGER2 b-arrestin cells, PGE2 5 μM)
# conditionNotes: antagonistic activity, beta-arrestin assay, HEK 293 PTGER2 cells, PGE2 5 μM (EC80); read-out: hEP2 b-arr IC50
pIC50: −log10 of the molar value.
measurementName: pIC50

[[record]]
smilesstructure = "CCOc1cc(-c2cc(NCCc3c(Br)cc(F)c4ccccc34)ncn2)ccc1C(=O)O"
measurementname = "pIC50"
readoutvalue = 6.02

[[record]]
smilesstructure = "CCOc1cc(-c2cc(NCCc3ccc(C)c4ccccc34)ncn2)ccc1C(=O)O"
measurementname = "pIC50"
readoutvalue = 6.84

[[record]]
smilesstructure = "CCOc1cc(-c2cc(NCCc3c(OC)ccc4ccccc34)ncn2)ccc1OCC(=O)O"
measurementname = "pIC50"
readoutvalue = 7.35

[[record]]
smilesstructure = "CCOc1cc(-c2cc(NCCc3cccc4ccsc34)ncn2)ccc1C(=O)O"
measurementname = "pIC50"
readoutvalue = 6.89


* * *

# assayTarget: PTGER2 (EP2) (Homo sapiens)
# assayExplanation: hEP2 b-Arrestin Assay (PathHunter HEK 293 PTGER2 b-arrestin cells, PGE2 5 μM)
# conditionNotes: antagonistic activity, beta-arrestin assay, HEK 293 PTGER2 cells, PGE2 5 μM (EC80); read-out: hEP2 b-arr IC50
# Protocol: The antagonistic activities of the compounds of formula (I) on the EP2 and EP4 receptors are also determined in accordance with the following experimental method. […] PathHunter Glo Detection Kit components are thawed and mix according to manufacturer's instructions: 1 part Galacton Star Substrate with 5 parts Emerald II™ Solution, and 19 parts of PathHunter Cell Assay Buffer, respectively. […] Luminescence counts are read on a BMG Fluostar Optima reader according to manufacturer's instructions. […]
# thresholds on IC50 define classes: class 0 (below 30 nM), class 1 (30 nM to below 90 nM), class 2 (90 nM or more)

[[record]]
molecule = "CCOc1cc(-c2cc(NCCc3c(C)ccc4c3cnn4C)ncn2)ccc1O [Example 111]"
assignedlabel = "class 1"

[[record]]
molecule = "CCOc1cc(-c2cc(NCCc3cccc4cc(C)[nH]c34)ncn2)sc1C(=O)O [Example 37]"
assignedlabel = "class 2"

[[record]]
molecule = "CCOc1cc(-c2cc(NCCc3c(OC)ccc4sccc34)ncn2)ccc1CC(=O)O [Example 166]"
assignedlabel = "class 1"

[[record]]
molecule = "O=C(O)c1ccc(-c2cc(NCCc3c(F)ccc4ccccc34)ncn2)cc1OC1CCC1 [Example 94]"
assignedlabel = "class 1"

[[record]]
molecule = "CCOc1cc(-c2cc(NCCc3c(OC)ccc4ncccc34)ncn2)sc1C(=O)O [Example 65]"
assignedlabel = "class 0"

[[record]]
molecule = "Cc1ccc(CCNc2cc(-c3ccc(C(=O)O)c(OC4CCC4)c3)ncn2)c2ccccc12 [Example 17]"
assignedlabel = "class 2"

[[record]]
molecule = "CCOc1cc(-c2cc(NCCc3ccc(Br)c4ccccc34)ncn2)ccc1C(=O)O [Example 182]"
assignedlabel = "class 2"

[[record]]
molecule = "CCOc1cc(-c2cc(NCCc3cccc4ccn(C)c34)ncn2)sc1C(=O)O [Example 24]"
assignedlabel = "class 0"

[[record]]
molecule = "CSc1cc(-c2cc(NCCc3c(Br)cc(F)c4ccccc34)ncn2)ccc1C(=O)O [Example 170]"
assignedlabel = "class 2"

[[record]]
molecule = "CCOc1cc(-c2cc(NCCc3ccc(C)c4ccccc34)ncn2)sc1C(=O)O [Example 18]"
assignedlabel = "class 0"

[[record]]
molecule = "CCOc1cc(-c2cc(NCCc3c(C(F)F)ccc4ccccc34)ncn2)sc1C(=O)O [Example 70]"
assignedlabel = "class 1"

[[record]]
molecule = "COc1ccc2ccccc2c1CCNc1cc(-c2cc3c(C(=O)O)cccc3[nH]2)ncn1 [Example 129]"
assignedlabel = "class 1"

[[record]]
molecule = "Cn1ccc2c(CCNc3cc(-c4ccc(C(=O)O)c(OC5CCC5)c4)ncn3)cccc21 [Example 159]"
assignedlabel = "class 1"

[[record]]
molecule = "CCOc1cc(-c2cc(NCCc3c(N)ccc4ccccc34)ncn2)sc1C(=O)O [Example 78]"
assignedlabel = "class 1"

[[record]]
molecule = "Cc1ccc2c(cnn2C)c1CCNc1cc(-c2ccc3ccncc3c2)ncn1 [Example 115]"
assignedlabel = "class 2"

[[record]]
molecule = "CCCCOc1cc(-c2cc(NCCc3c(OC)ccc4ccccc34)ncn2)ccc1C(=O)O [Example 119]"
assignedlabel = "class 0"

[[record]]
molecule = "CSc1cc(-c2cc(NCCc3cccc4c(C)cccc34)ncn2)ccc1C(=O)O [Example 173]"
assignedlabel = "class 0"

